Tested on: panel of 55 breast cancer cell lines
Experiment: Cell growth inhibition assay (Cell Titer Glo, 72 h, 9 doses; GI50, TGI, LC50)
Assay type: cell-based, human
Conditions: Homo sapiens, HCC38, HCC38 cell line; censored GI50 values; read-out: GI50 (converted)
assay readout: GI50 (nM)
Unit nM implied. Number only.

molecular string	system	measurement
Cn1c(=O)n(-c2ccc(C(C)(C)C#N)cc2)c2c3cc(-c4cnc5ccccc5c4)ccc3ncc21	panel of 55 breast cancer cell lines	490
CCC1=C[C@@H]2CN(C1)Cc1c([nH]c3ccccc13)[C@@](C(=O)OC)(c1cc3c(cc1OC)N(C)[C@H]1[C@@](O)(C(=O)OC)[C@H](OC(C)=O)[C@]4(CC)C=CCN5CC[C@]31[C@@H]54)C2	panel of 55 breast cancer cell lines	11.5

Query: I'd like to know its GI50. The molecule in question is CO[C@H]1C[C@@H]2CC[C@@H](C)[C@@](O)(O2)C(=O)C(=O)N2CCCC[C@H]2C(=O)O[C@H]([C@H](C)C[C@@H]2CC[C@@H](OC(=O)C(C)(CO)CO)[C@H](OC)C2)CC(=O)[C@H](C)/C=C(\C)[C@@H](O)[C@@H](OC)C(=O)[C@H](C)C[C@H](C)/C=C/C=C/C=C/1C
Result: 389

Query: I'd like to know its GI50. The molecule in question is Cc1cncc2cccc(S(=O)(=O)N3CCCN(C(=O)CN)C[C@@H]3C)c12
Result: 1020

* * *

Test system: panel of 55 breast cancer cell lines
Assay: Cell growth inhibition assay (Cell Titer Glo, 72 h, 9 doses; GI50, TGI, LC50)
Format: cell-based, human
Details: HCC70 cell line; censored GI50 values; value is the negative log10 of mol/L
assay readout: GI50

molecule	system	assay readout	measurement
O=c1[nH]c2ccccc2n1C1CCN(Cc2ccc(-c3nc4cc5[nH]cnc5cc4nc3-c3ccccc3)cc2)CC1 [Sigma AKT1-2 inhibitor]	panel of 55 breast cancer cell lines	GI50	5.74

Query: I'd like to know its GI50. The molecule in question is CCNCCCCNCCCCNCCCCNCCCCNCC=CCNCCCCNCCCCNCCCCNCCCCNCC.Cl.Cl.Cl.Cl.Cl.Cl.Cl.Cl.Cl.Cl (stereo in doubt) [CGC-11144]
Result: 6.55

Query: I'd like to know its GI50. The molecule in question is C=CCNC1=C2C[C@@H](C)C[C@H](OC)[C@H](O)[C@@H](C)/C=C(\C)[C@H](OC(N)=O)[C@@H](OC)/C=C\C=C(/C)C(=O)NC(=CC1=O)C2=O [17-AAG]
Result: 6.62

* * *

System: panel of 55 breast cancer cell lines
Assay: Cell growth inhibition assay (Cell Titer Glo, 72 h, 9 doses; GI50, TGI, LC50)
Assay type: cell-based, human
Conditions: Homo sapiens, MDA-MB-415, cell line MDAMB415; read-out: GI50 (converted)
# label = 1.0 if GI50 < 7000 nM else 0.0

Query: Strictly below 7000 nM in GI50? CC(=O)O[C@@]12CO[C@@H]1C[C@H](O)[C@@]1(C)C(=O)[C@H](O)C3=C(C)[C@@H](OC(=O)[C@H](O)[C@@H](NC(=O)OC(C)(C)C)c4ccccc4)C[C@@](O)([C@@H](OC(=O)c4ccccc4)[C@H]21)C3(C)C
Result: 1.0

Query: Strictly below 7000 nM in GI50? CC[C@@]1(O)C(=O)OCc2c1cc1n(c2=O)Cc2cc3c(CN(C)C)c(O)ccc3nc2-1
Result: 1.0

Query: Strictly below 7000 nM in GI50? CO[C@H]1C[C@@H]2CC[C@@H](C)[C@@](O)(O2)C(=O)C(=O)N2CCCC[C@H]2C(=O)O[C@H]([C@H](C)C[C@@H]2CC[C@@H](O)[C@H](OC)C2)CC(=O)[C@H](C)/C=C(\C)[C@@H](O)[C@@H](OC)C(=O)[C@H](C)C[C@H](C)/C=C/C=C/C=C/1C
Result: 1.0

Query: Strictly below 7000 nM in GI50? Cc1[nH]c2ccccc2c1CCNCc1ccc(/C=C/C(=O)NO)cc1
Result: 1.0

Query: Strictly below 7000 nM in GI50? CN(Cc1cnc2nc(N)nc(N)c2n1)c1ccc(C(=O)N[C@@H](CCC(=O)O)C(=O)O)cc1 [Methotrexate]
Result: 0.0
